targetOrTestSystem: CYP3A4 (Homo sapiens)
Sequence (P08684 whole entry): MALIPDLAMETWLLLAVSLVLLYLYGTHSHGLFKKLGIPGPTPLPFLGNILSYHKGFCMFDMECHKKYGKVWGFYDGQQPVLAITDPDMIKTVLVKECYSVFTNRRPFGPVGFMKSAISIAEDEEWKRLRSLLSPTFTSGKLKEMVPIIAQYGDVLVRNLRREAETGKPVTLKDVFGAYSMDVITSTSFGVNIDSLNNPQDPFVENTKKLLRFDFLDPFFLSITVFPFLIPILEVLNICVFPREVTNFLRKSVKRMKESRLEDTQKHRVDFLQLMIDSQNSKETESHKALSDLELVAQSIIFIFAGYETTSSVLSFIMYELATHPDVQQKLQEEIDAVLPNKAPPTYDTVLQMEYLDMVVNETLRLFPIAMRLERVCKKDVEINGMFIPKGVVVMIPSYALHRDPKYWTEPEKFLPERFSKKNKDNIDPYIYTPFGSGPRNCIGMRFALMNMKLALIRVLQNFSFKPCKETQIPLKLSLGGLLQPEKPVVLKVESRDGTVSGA
experimentDescription: Inhibition of CYP3A4 (unknown origin) at 10 uM by luminescence based Glo assay
Format: ADME
measurementConditions: CYP3A4 enzyme (unknown origin)
measuredEndpoint: inhibition at 10 µM

Q. Name the recorded inhibition at 10 µM for O=C(NCCCCCCn1nc2ccccn2c1=O)N1CCN(c2cccc(Cl)c2)CC1 .
A. 75%

---

experimentDescription: Metabolic stability in mouse liver microsomes assessed as parent compound remaining at 50 uM measured after 120 mins by UPLC-MS analysis
Assay type: ADME, Microsome
measurementConditions: read-out: Stability
measuredEndpoint: remaining at 2 h, 50 µM (%)
Value expressed in %; do not type the unit.

Q. For O=C(NCCCCCCn1nc2ccccn2c1=O)N1CCN(c2cccc(Cl)c2)CC1 , what is its reported remaining at 2 h, 50 µM?
A. 0

---

targetOrTestSystem: 5-hydroxytryptamine receptor 1A (Homo sapiens, UniProt P08908)
Sequence (P08908 whole entry): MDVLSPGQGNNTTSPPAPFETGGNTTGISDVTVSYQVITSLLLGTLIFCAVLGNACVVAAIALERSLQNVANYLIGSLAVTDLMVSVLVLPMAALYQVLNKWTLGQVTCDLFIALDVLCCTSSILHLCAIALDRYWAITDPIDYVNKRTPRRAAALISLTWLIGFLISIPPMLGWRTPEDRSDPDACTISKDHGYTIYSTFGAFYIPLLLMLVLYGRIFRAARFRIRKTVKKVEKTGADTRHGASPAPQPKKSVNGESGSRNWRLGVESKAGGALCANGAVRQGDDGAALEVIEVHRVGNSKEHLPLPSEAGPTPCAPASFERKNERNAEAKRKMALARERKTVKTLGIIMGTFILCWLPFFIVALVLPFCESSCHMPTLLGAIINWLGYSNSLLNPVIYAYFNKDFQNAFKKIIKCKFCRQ
experimentDescription: Displacement of [3H]-[…] from human 5-HT1AR in human brain tissue by radioligand binding assay
Type: tissue-based
measuredEndpoint: Ki (nM)
Give your result in nM as a bare value.

Q. Fill in the recorded Ki for this compound, with 5-hydroxytryptamine receptor 1A (Homo sapiens, UniProt P08908) as test system: O=c1[nH]c2ccccc2n1CCN1CCN(c2cccc(C(F)(F)F)c2)CC1 [FLIBANSERIN]
A. 11.8

---

targetOrTestSystem: 5-hydroxytryptamine receptor 1A (Homo sapiens)
experimentDescription: Binding affinity to 5-HT1AR (unknown origin) assessed as inhibition constant
measuredEndpoint: Ki (nM)
Give just the numeric value; nM need not be written.

Q. Quick check: Ki of Clc1cccc(N2CCNCC2)c1 ?
A. 42
